Molecular target: Estrogen receptor (Homo sapiens, UniProt Q92731+P03372)
Details: mcf-7
Description: Inhibition of MCF-7 cell proliferation
resultType: IC50 (nM)
Give just the numeric value; nM need not be written.

Example entries and their recorded answers appear below.
Oc1ccc2c(c1)CS[C@H](c1ccccc1)[C@@H]2c1ccc(OCCN2CCCC2)cc1; 0.25
COc1ccc2c(c1)CO[C@H](c1ccccc1)[C@@H]2c1ccc(OCCN2CCCC2)cc1; 57
Oc1ccc2c(c1)CO[C@H](c1ccccc1)[C@@H]2c1ccc(OCCN2CCCC2)cc1; 0.15

Continue with the molecule presented below.
Look up and report measured IC50 for this entry: `COc1ccc2c(c1)CS[C@H](c1ccccc1)[C@@H]2c1ccc(OCCN2CCCC2)cc1`
164

----------
Molecular target: Estrogen receptor beta (Homo sapiens, UniProt Q92731)
Sequence (Q92731 whole entry): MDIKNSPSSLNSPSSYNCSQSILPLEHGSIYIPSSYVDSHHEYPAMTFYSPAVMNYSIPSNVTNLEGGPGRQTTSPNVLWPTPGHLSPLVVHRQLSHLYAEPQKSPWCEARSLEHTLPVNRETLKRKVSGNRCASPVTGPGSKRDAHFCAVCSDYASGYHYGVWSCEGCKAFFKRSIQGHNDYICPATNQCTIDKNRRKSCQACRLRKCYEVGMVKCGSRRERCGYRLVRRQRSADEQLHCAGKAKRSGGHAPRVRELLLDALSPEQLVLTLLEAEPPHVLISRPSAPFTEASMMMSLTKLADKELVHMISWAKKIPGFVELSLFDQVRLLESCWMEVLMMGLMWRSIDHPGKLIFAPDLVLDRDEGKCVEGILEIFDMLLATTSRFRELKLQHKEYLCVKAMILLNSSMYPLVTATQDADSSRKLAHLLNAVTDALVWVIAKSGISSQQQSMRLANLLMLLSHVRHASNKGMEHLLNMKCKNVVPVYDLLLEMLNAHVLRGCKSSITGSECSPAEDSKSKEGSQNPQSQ
Measured IC50 by item
Give just the numeric value; nM need not be written.

Example entries and their recorded answers appear below.
Oc1ccc2c(c1)CO[C@H](c1ccccc1)[C@@H]2c1ccc(OCCN2CCCC2)cc1; 3.6
Oc1ccc2c(c1)CS[C@H](c1ccccc1)[C@@H]2c1ccc(OCCN2CCCC2)cc1; 2.1

Find IC50 for `COc1ccc2c(c1)CO[C@H](c1ccccc1)[C@@H]2c1ccc(OCCN2CCCC2)cc1` on Estrogen receptor beta (Homo sapiens, UniProt Q92731) and write it down.
315
